Target: T1, 6His–Evasin-4 (Rhipicephalus sanguineus, UniProt P0C8E9 24-127)
T1 sequence: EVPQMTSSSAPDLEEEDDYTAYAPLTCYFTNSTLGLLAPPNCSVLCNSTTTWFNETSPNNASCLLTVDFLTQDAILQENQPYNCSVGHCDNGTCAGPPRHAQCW
Assay: SPR
reported property: kon (M⁻¹ s⁻¹)

binder	reported property	unit name	reported value
CCL24 (ligand) VVIPSPCCMFFVSKRIPENRVVSYQLSSRSTCLKAGVIFTTKKGQQFCGDPKQEWVQRYMKNLDAKQKKASPRARAVAVKGPVQRYPGNQTTC	kon	M⁻¹ s⁻¹	3.05e+07
CCL14 (ligand) TKTESSSRGPYHPSECCFTYTTYKIPRQRIMDYYETNSQCSKPGIVFITKRGHSVCTNPSDKWVQDYIKDMKEN	kon	M⁻¹ s⁻¹	1.04e+07
CCL18 (ligand) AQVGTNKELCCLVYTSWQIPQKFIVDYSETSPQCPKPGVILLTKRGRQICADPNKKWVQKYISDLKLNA	kon	M⁻¹ s⁻¹	1.96e+07
